Tested on: LOC_OS03G50810-cb003;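 further: purified Escherichia coli-expressed rice kinase domain construct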
Experiment: thermal shift delta Tm vs DMSO control; higher = stronger stabilization (binding)
Conditions: 12.5 µM; protein concentration 2 µM
Experimental readout: thermal shift delta Tm (°C)

INSERT INTO assay_data (compound, recorded_measurement) VALUES
  ('O=C(O)c1ccc2c3c1cccc3c(=O)n1c3ccccc3nc21', 0.91),
  ('Cc1cc(CN2CCN(c3c(Br)cnc4nc(-c5ccc(N6CCN(C)CC6)cc5)[nH]c34)CC2)no1', 4),
  ('O=C(O)[C@]1(Cc2cccc(Nc3nccs3)n2)CC[C@@H](Oc2cccc(Cl)c2F)CC1', 2.52),
  ('C[C@@H](Oc1cc(-n2cnc3ccc(CN4CCN(C)CC4)cc32)sc1C(N)=O)c1ccccc1C(F)(F)F', 0.55),
  ('Nc1nc(N)c2nc(-c3cccc(O)c3)c(-c3cccc(O)c3)nc2n1', 0.34),
  ('COC(=O)Nc1ccc(-c2nc(N3CCOCC3)c3cnn(C4CCN(C(=O)OC)CC4)c3n2)cc1', 0.17),
  ('CC(C)(C)Cn1c(N)nc2ccc(-c3[nH]c(C(C)(C)C)nc3-c3ccc(F)cc3)nc21', 0.13),
  ('O=C(c1ccc(/C=C/c2n[nH]c3ccccc23)cc1)N1CCNCC1', 4.42),
  ('CC1(C)C=Cc2c(ccc3c2OC[C@@H](c2ccc(O)cc2O)C3)O1 [Glabridin]', 0.74),
  ('OC1CCC(Oc2cccc3cnc(Nc4ccc5nc[nH]c5c4)nc23)CC1 (centres undefined)', 7.28),
  ('Nc1ccc(-c2ccc3ncc4ccc(=O)n(-c5cccc(C(F)(F)F)c5)c4c3c2)cn1 [Torin 2]', 0.92),
  ('C=CC(=O)Nc1cccc(Oc2nc(Nc3ccc(N4CCN(C)CC4)cc3OC)ncc2Cl)c1', 2.04),
  ('CCn1c(=O)c(-c2ccc(Cl)cc2Cl)cc2cnc(Nc3ccc(N4CCNCC4)c(F)c3)nc21', 6.99),
  ('COC(=O)[C@]12CCC(C)(C)C[C@H]1[C@H]1C(=O)C=C3[C@@]4(C)C=C(C#N)C(=O)C(C)(C)[C@@H]4CC[C@@]3(C)[C@]1(C)CC2 [Bardoxolone Methyl]', -3.78),
  ('FC(F)(F)c1ccc(Nc2nc3ccc(Oc4ccnc(-c5ncc(C(F)(F)F)[nH]5)c4)cc3[nH]2)cc1 [Raf265 derivative]', 1.68),
  ('Cc1cc2c(F)c(Oc3ncnn4cc(OC[C@@H](C)O)c(C)c34)ccc2[nH]1', 0.22),
  ('C[C@@H](NC(=O)c1ncnc(N)c1Cl)c1ncc(C(=O)Nc2cc(C(F)(F)F)c(Cl)cn2)s1', -0.01),
  ('COc1ccc(Cl)cc1NC(=O)Nc1cc(C)nc2ccccc12', 0.32),
  ('C=CC(=O)Nc1ccc(CN2C(=O)N(c3cc(OC)cc(OC)c3)Cc3cnc(Nc4ccc(N5CCN(C)CC5)cc4)nc32)cc1', 0.75);
